- Tested on: PDL-1 and/or PDL-2 signaling
- protocol.summary: Luciferase assay of dipeptides, Table 1
- Assay type: cell-based
Square brackets hold non-standard residues; d marks the D form. Peptide text beside a SMILES is read from it. * marks the point of attachment. PhAc = O=C(Cc1ccccc1)*; Aib = CC(C)(N)C(=O)O
measured.metric: EC50 (µM)

CC(C)(NC(=O)[C@@H](CCCCN)NC(=O)Cc1ccccc1)C(N)=O [Compound 8] (PhAc-[dK]-[Aib]-NH2)	1.37
Cc1c[nH]c(=O)c(NC(=O)[C@@H](CCCN)NC(=O)Cc2ccccc2)c1 [Compound 36]	1.69
CC(C)(NC(=O)[C@H](CCCN)NC(=O)Cc1ccc(C(F)(F)F)cc1)C(N)=O [Compound 42]	12.1
CC(C)(NC(=O)[C@@H](CCCN)NC(=O)Cc1ccc(Cl)cc1)C(N)=O [Compound 17]	10.3

1: CC(C)(NC(=O)[C@@H](CCCN)NC(=O)Cc1ccncc1)C(N)=O [Compound 34]
2: CC(C)(NC(=O)[C@@H](CCCN)NC(=O)Cc1nc2ccccc2s1)C(N)=O [Compound 40]
Input line: Which entry shows the lesser value of EC50 here, 1 or 2 ? // caller expects the label of the chosen entry
Output line: 2
